test: Biodistribution of 177Lu-labeled αMSH analogues in mice bearing B16F10 mouse melanoma; assay type: in vivo, C57BL/6J mice; conditions: mouse, kidneys, iv, total radioactivity; 24 h p.i., C57BL/6J mice, B16F10 melanoma; read-out: Biodistribution, Kidneys
Can you tell me tissue uptake at 24 h for the items I'm about to list?
Numbers only here, please. The scale is %ID/g.

Look at this compound and give its reported tissue uptake at 24 h. CCCC[C@H](NC(=O)CN1CCC(NC(=O)CN2CCN(CC(=O)O)CCN(CC(=O)O)CCN(CC(=O)O)CC2)CC1)C(=O)N[C@H]1CC(=O)NCCCC[C@@H](C(N)=O)N(C)C(=O)[C@H](Cc2c[nH]c3ccccc23)NC(=O)[C@H](CCCNC(=N)N)N(C)C(=O)[C@@H](Cc2ccccc2)NC(=O)[C@H](Cc2c[nH]cn2)NC1=O [^177Lu-labeled CCZ01106, metal not drawn]
1.24

Return reported tissue uptake at 24 h; argument: CCCC[C@H](NC(=O)CN1CCC(NC(=O)[C@H](CCCCNC(=O)CN2CCN(CC(=O)O)CCN(CC(=O)O)CCN(CC(=O)O)CC2)NC(=O)[C@H](CCC(=O)O)NC(=O)CCCc2ccc(I)cc2)CC1)C(=O)N[C@H]1CC(=O)NCCCC[C@@H](C(N)=O)NC(=O)[C@H](Cc2c[nH]c3ccccc23)NC(=O)[C@H](CCCNC(=N)N)NC(=O)[C@@H](Cc2ccccc2)NC(=O)[C@H](Cc2c[nH]cn2)NC1=O [^177Lu-labeled CCZ01082, metal not drawn]
8.63

Fill blank: measured tissue uptake at 24 h of the compound CCCC[C@H](NC(=O)CN1CCC(NC(=O)[C@H](CCCCNC(=O)CN2CCN(CC(=O)O)CCN(CC(=O)O)CCN(CC(=O)O)CC2)NC(=O)[C@H](CCC(=O)O)NC(=O)CCCc2ccc(I)cc2)CC1)C(=O)N[C@H]1CC(=O)NCCCC[C@@H](C(N)=O)N(C)C(=O)[C@H](Cc2c[nH]c3ccccc23)N(C)C(=O)[C@H](CCCNC(=N)N)N(C)C(=O)[C@@H](Cc2ccccc2)NC(=O)[C@H](Cc2c[nH]cn2)N(C)C1=O [^177Lu-labeled CCZ01088, metal not drawn] is ____.
8.1

I'd like to know its tissue uptake at 24 h. The compound in question is CCCC[C@H](NC(=O)CN1CCC(NC(=O)CN2CCN(CC(=O)O)CCN(CC(=O)O)CCN(CC(=O)O)CC2)CC1)C(=O)N[C@H]1CC(=O)NCCCC[C@@H](C(N)=O)NC(=O)[C@H](Cc2c[nH]c3ccccc23)NC(=O)[C@H](CCCNC(=N)N)NC(=O)[C@@H](Cc2ccccc2)NC(=O)[C@H](Cc2c[nH]cn2)NC1=O [^177Lu-labeled CCZ01048, metal not drawn, reference compound]
1.78

---

test system: B16F10 mouse melanoma; assay: Biodistribution of 177Lu-labeled αMSH analogues in mice bearing B16F10 mouse melanoma; assay type: in vivo, C57BL/6J mice; conditions: 4 h p.i., C57BL/6J mice, B16F10 melanoma
Consider the following molecules; for each one, report its Biodistribution, B16F10 tumour.
Answer as a quantity: numeral, then unit.

Dear colleague, I am looking for the recorded Biodistribution, B16F10 tumour of the following molecule: CCCC[C@H](NC(=O)CN1CCC(NC(=O)CN2CCN(CC(=O)O)CCN(CC(=O)O)CCN(CC(=O)O)CC2)CC1)C(=O)N[C@H]1CC(=O)NCCCC[C@@H](C(N)=O)NC(=O)[C@H](Cc2c[nH]c3ccccc23)NC(=O)[C@H](CCCNC(=N)N)NC(=O)[C@@H](Cc2ccccc2)NC(=O)[C@H](Cc2c[nH]cn2)NC1=O [^177Lu-labeled CCZ01048, metal not drawn, reference compound]
16.7 ± 3.86 % ID/g

I'd like to know its Biodistribution, B16F10 tumour. The molecule in question is CCCC[C@H](NC(=O)CN1CCC(NC(=O)[C@H](CCCCNC(=O)CN2CCN(CC(=O)O)CCN(CC(=O)O)CCN(CC(=O)O)CC2)NC(=O)[C@H](CCC(=O)O)NC(=O)CCCc2ccc(I)cc2)CC1)C(=O)N[C@H]1CC(=O)NCCCC[C@@H](C(N)=O)NC(=O)[C@H](Cc2c[nH]c3ccccc23)NC(=O)[C@H](CCCNC(=N)N)NC(=O)[C@@H](Cc2ccccc2)NC(=O)[C@H](Cc2c[nH]cn2)NC1=O [^177Lu-labeled CCZ01082, metal not drawn]
20.8 ± 5.37 % ID/g

Recorded Biodistribution, B16F10 tumour of CCCC[C@H](NC(=O)CN1CCC(NC(=O)[C@H](CCCCNC(=O)CN2CCN(CC(=O)O)CCN(CC(=O)O)CCN(CC(=O)O)CC2)NC(=O)[C@H](CCC(=O)O)NC(=O)CCCc2ccc(I)cc2)CC1)C(=O)N[C@H]1CC(=O)NCCCC[C@@H](C(N)=O)N(C)C(=O)[C@H](Cc2c[nH]c3ccccc23)NC(=O)[C@H](CCCNC(=N)N)N(C)C(=O)[C@@H](Cc2ccccc2)NC(=O)[C@H](Cc2c[nH]cn2)NC1=O [^177Lu-labeled CCZ01118, metal not drawn] , please.
29.7 ± 5.23 % ID/g
